Catalogue of compounds with associated TGI
Test system: 786-0 renal
Test: NCI tumour cell line growth inhibition, 48 h
Expressed in nM, but write only the number.

mol=O=C1C(=O)c2cccnc2-c2ncccc21 property=TGI recorded_value=2500

Shifting focus to the compound that follows.
TGI measured on Cc1ncc(C(=O)Nc2ccc(CN3CCN(C)CC3)c(C(F)(F)F)c2)cc1C#Cc1cnc(N)cc1C#N = 835

====

Test system: CCRF-CEM leukemia
Test: NCI tumour cell line growth inhibition, 48 h
*1 amine or outer side, *2 acyl side, *3 side chain or, on linkers, in order; H or OH if unused. Where a SMILES comes first, the peptide text is derived from it. [ ]: non-standard residue; d: D form. X32 = C[C@H](N[*:1])C(=O)C(C)(C)C(=O)[*:2]; Hmpa(2S,3S) = CC[C@H](C)[C@H](O)C(=O)O; NMeY = CN[C@@H](Cc1ccc(O)cc1)C(=O)O; NMeL = CN[C@@H](CC(C)C)C(=O)O; NMeV = CN[C@H](C(=O)O)C(C)C; βAla = NCCC(=O)O
property: TGI

These solved cases illustrate the format of a correct answer.
compound=CN(C)c1ccc(/C=C/c2cc[n+](C)c(/C=C/c3ccc(N(C)C)cc3)c2)cc1 recorded_value="3.78 µM"
compound=CC(C)OP(=O)(NC(=S)c1ccccc1)OC(C)C recorded_value="> 100 µM"
compound=N#C/C(N)=C(\C#N)NC(=O)C(=O)N/C(C#N)=C(\N)C#N recorded_value="> 100 µM"
compound=O=C1C(Cl)=C(NCc2ccco2)C(=O)c2ccccc21 recorded_value="> 100 µM"
compound=C=C(C)[C@@H]1CCC2=C[C@H](OC2=O)[C@@]2(C)C[C@@H]2C2=CC(C)=C(O2)[C@H]1O recorded_value="> 75 µM"

TGI measured on COC(=O)c1ccccc1C1CN=NC12Cc1cc(C)ccc1C2=O (stereo not drawn) = > 100 µM

TGI measured on C=C(c1ccccc1)[C@@]1(O)CC[C@@H]1N(CC#N)Cc1ccccc1 = 62.5 µM

TGI measured on CC[C@H](C)[C@@H]1OC(=O)CCNC(=O)[C@@H](C)NC(=O)C(C)(C)C(=O)[C@H](C)NC(=O)[C@H](Cc2ccc(OC)cc2)N(C)C(=O)[C@H](C(C)C)N(C)C(=O)CNC(=O)[C@H](CC(C)C)N(C)C(=O)CNC1=O (cyclo(G[NMeL]G[NMeV][NMeY](Me)[X32][dA][βAla][Hmpa(2S,3S)])) = 2.2 µM

Origin of values: PubChem BioAssay (NCI)
